system: MCF7 breast; test: NCI-60 one-dose screen, 48 h (100 = growth as untreated, 0 = no growth, -100 = all killed); conditions: 10 µM
The panel holds about 83,000 compounds, 20% with a hit somewhere; the sample as a whole holds those more often.
Give growth for every item shown.
Give bare numbers, in %.

Completed entries (count: 3):
molecule	unit abbreviation	measured number
CC(C)N(CCOc1cccc(-c2nc3sccn3c2-c2ccnc(S(C)(=O)=O)n2)c1)C(C)C	%	54.4
COc1ccc(C2CC(c3cccs3)=NN2c2ccc(S(N)(=O)=O)cc2)cc1 (stereo unspecified)	%	75
O=C(O)COc1c(Cl)cc([N+](=O)[O-])cc1Cl	%	94.7

For every record below, what is its growth?
1. CNC(=O)c1c(I)c(NC(C)=O)c(I)c(C(=O)O)c1I
2. Cc1ccc(C(SCC(N)C(=O)O)(c2ccc(C)cc2)c2ccc(C)cc2)cc1 (stereo unspecified)
3. Clc1ccc(/C=C2\CCCC3C2=Nc2ccccc2NC3c2ccc(Cl)cc2)cc1 (stereo unspecified)
4. NC(N)=N/N=C(\N=Nc1ccccc1)c1ccc(Cl)cc1

[108, 9.12, 35.8, 23.8]

For every record below, what is its growth?
1. Cc1cc(Cl)ccc1Nc1nc(C(F)(F)F)ccc1C(=O)N/N=C/c1cccc(O)c1
2. Cc1ccc(-n2nnnc2N)c(C)c1
3. c1ccc(CCCCc2ccc3ccccc3n2)cc1
4. CCN(CC)CC(=O)N(CC)c1ccc(C)c(Cl)c1

[29.9, 95.9, 108, 98.6]

---

test system: NCI-H23 lung; experiment: NCI-60 one-dose screen, 48 h (100 = growth as untreated, 0 = no growth, -100 = all killed); conditions: 10 µM
This is part of a sample that, as a whole, favours compounds with a hit. Of some 83,000 tested, about 20% had one in any assay.
Reported growth maps to class as: bin 1 (below 40%), bin 2 (40% to below 80%), bin 3 (80% or more)

Worked examples follow.
compound	study system	class assignment
CCOC(=O)c1cc(C(=O)c2cc(OC)cc(OC)c2)n2nc(C)ccc12	NCI-H23 lung	bin 1
COc1ccc(/C(=N\N)C(=O)c2ccccc2)cc1 (tested in a mixture with another compound)	NCI-H23 lung	bin 3
CC(=O)C1N=NCC1c1ccccc1 (stereo not drawn)	NCI-H23 lung	bin 3
Cc1cc(=O)n2nnc3cc(C(F)(F)F)ccc3n12	NCI-H23 lung	bin 3
NC(CSC(c1ccccc1)(c1ccccc1)c1cccc2ccccc12)C(=O)O (stereo not drawn)	NCI-H23 lung	bin 3
c1cncc(-c2csc(-c3c[nH]c4ccccc34)n2)c1	NCI-H23 lung	bin 3
C1CN(CC2CCC(CN3CCOCC3)O2)CCO1 (stereo not drawn)	NCI-H23 lung	bin 3
N#Cc1c(-c2ccc(Cl)cc2)csc1NC(=O)Nc1ccc(Cl)c(C(F)(F)F)c1	NCI-H23 lung	bin 1

In plain terms, what class is COc1ccc2c(c1)C(=O)/C(=C/c1cccc(OCC(=O)c3ccc([N+](=O)[O-])cc3)c1)CO2 ?
bin 1

Param item: COc1ccc(-c2cc(-c3ccc(Cl)cc3)nc(SCCCC(=O)NO)n2)cc1
bin 1

Param item: CCCN(CCC)C(=O)[C@H](CC)[C@@H]1CC[C@@H](C)[C@@H]([C@H](C)[C@@H](O)[C@@H](C)C(=O)[C@H](CC)C2O[C@]3(C=C[C@@H](O)[C@]4(CC[C@@](C)([C@H]5CC[C@](O)(CC)[C@H](C)O5)O4)O3)[C@H](C)C[C@@H]2C)O1 (stereo partly drawn)
bin 1

Param item: CCOC(=O)c1cc(C(=O)c2cc(OC)c(OC)c(OC)c2)n2ccc(-c3cc[n+](CC(=O)c4cc(OC)c(OC)c(OC)c4)cc3)cc12
bin 2

Param item: Cc1ccc(NCCN(C)CC(C)O)c2c(=O)c3ccccc3sc12 (stereo not drawn)
bin 2

---

test system: SNB-19 CNS; test: NCI-60 one-dose screen, 48 h (100 = growth as untreated, 0 = no growth, -100 = all killed); conditions: 10 µM
This is part of a sample that, as a whole, favours compounds with a hit. Of some 83,000 tested, about 20% had one in any assay.
Give growth for every item shown.
Numbers only, in %.

Completed entries (count: 3):
compound	unit abbreviation	growth
O=C(Nc1ccccc1)Nc1ncnc2c1ncn2-c1ccccc1	%	57.7
COc1ccc(C(c2ccc(OCCN(C)C)cc2)c2cc3ccccc3c3ccccc23)cc1 (configuration not stated)	%	65
O=C1OC(C(Cl)(Cl)Cl)OC1C(Cl)(Cl)Cl (configuration not stated)	%	102

For every record below, what is its growth?
1. CC(C)(O)CCl
2. COc1cc2c(cc1OC)C(C(CCCCCC(CCC(C)C)C1NCCc3cc(OC)c(OC)cc31)CCC(C)C)NCC2 (configuration not stated)
3. O=C(Nc1ccc(NS(=O)(=O)c2ccc(F)cc2)cc1)C12CC3CC(CC(C3)C1)C2

102
-47.5
93.7

For every record below, what is its growth?
1. COc1ccc(C(=O)CSc2nc(-c3cc(OC)ccc3OC)cc(-c3ccc(OC)cc3)c2C#N)cc1
2. COc1cc2ncnc(NC3CCC(O)CC3)c2cc1OC (configuration not stated)
3. CCCCCCCCCCCCCCCCCC[n+]1ccc2c(C)c3c(c(C)c2c1)c1cc(O)ccc1n3CC
4. COc1cc(-c2nn(-c3cccc(NC(=O)CCN4CCN(Cc5ccccc5)CC4)c3)cc2-c2ccncc2)ccc1Cl
5. CN(C)CCCOc1ccc(OCCCN(C)C)c2c1C(=O)c1ccccc1C2=O
6. O=C1CC(SC(=S)C2CCCC2=O)C(=O)N1 (configuration not stated)
7. O=C(O)c1ccc(-n2cc(CNc3ccc(Oc4ccccc4)cc3)c(-c3ccccc3)n2)cc1

[99.9, 97.4, 5.25, 39.9, 7.81, 94.7, 87.7]

For every record below, what is its growth?
1. CN1C(C(=O)Nc2ccccn2)=C(O)c2sc(Cl)cc2S1(=O)=O
2. Cc1cc(Cl)ccc1Nc1nc(C(F)(F)F)ccc1C(=O)N/N=C/c1cccc(O)c1
3. CCN(CC)CCOc1cccc2c1C(=O)c1cccc(OCCN(CC)CC)c1C2=O

1. 104
2. 63.5
3. 31.8

---

test system: OVCAR-4 ovarian; experiment: NCI-60 one-dose screen, 48 h; details: 10 µM
Compounds without any hit were thinned out: in the full panel of roughly 83,000, 20% have a hit. Active and inactive are the calls of the source. The calls were made as follows: active = growth percent below 10; inactive = the rest.
Entry note: the call must match one of yes for active, no for inactive

Worked examples follow.
smiles code	study system	class assignment
COc1cc(Cc2cc(-c3ccccc3)n[nH]c2=O)cc(OC)c1OC	OVCAR-4 ovarian	no
O[C@@H]1CO[C@H]2[C@@H]1OC[C@@H]2O	OVCAR-4 ovarian	no
COc1cc(-c2nn(-c3cccc(NC(=O)NCCNC(=O)c4ccccc4)c3)cc2-c2ccncc2)ccc1Cl	OVCAR-4 ovarian	no

Returns: the outcome recorded for O=c1c(Br)ccc(Br)cc1Br in this assay.
yes

Param item: O=S(=O)(NCCCNc1nccc(-c2cn(-c3ccccc3)nc2-c2ccc(Cl)c(O)c2)n1)c1ccccc1
no

Param item: CC[N+](CC)=c1ccc2nc3c(cc(NCc4ccccc4)c4ccccc43)oc-2c1
yes

Param item: c1ccc(CCCCc2ccc3ccccc3n2)cc1
no

Param item: COc1ccc(-c2csc(NC(=O)c3ccc(Cc4n[nH]c(=O)c5cccnc45)cc3)n2)cc1
no

Param item: CC(C)(C)c1nn(-c2ccccc2)c2c1CC1(CN2Cc2ccc(Cl)cc2)C(=O)c2ccccc2C1=O
no

Param item: COc1ccc(C(=O)c2cc3c(OC)c(OC)c(OC)cc3[nH]2)cc1
no

---

tested on: SF-268 CNS; assay: NCI-60 one-dose screen, 48 h (100 = growth as untreated, 0 = no growth, -100 = all killed); conditions: 10 µM
About 83,000 compounds went through this panel and 20% of them were active in at least one assay; those are over-represented in the sample as a whole.
Give growth for every item shown.
Answers are plain numbers, in %.

smiles code	unit abbreviation	growth
COc1ccc(C2=Cn3c(CCC(=O)c4nc5ccccc5[nH]4)nnc3SC2)cc1	%	107
C=CCn1c(SCC(=O)Nc2ccc(C(=O)/C=C/c3ccc(Cl)cc3)cc2)nnc1-c1cc(-c2ccccc2)nc2ccccc12	%	76
O=C(O)c1ccc(-n2cc(CNc3ccc(Cl)cc3)c(-c3ccccc3)n2)cc1	%	100
NC(N)=N/N=C(\N=Nc1ccccc1)c1ccc(Cl)cc1	%	34.2

From here, focus on the item given below.
# query: growth of entry O=[N+]([O-])c1ccc(NCSc2ccc(Cl)cc2)cc1
94.1

---

Give growth for every item shown.
system: COLO 205 colon; assay: NCI-60 one-dose screen, 48 h (100 = growth as untreated, 0 = no growth, -100 = all killed); settings: 10 µM
This is part of a sample that, as a whole, favours compounds with a hit. Of some 83,000 tested, about 20% had one in any assay.
Answers are plain numbers, in %.

smiles code	study system	unit abbreviation	measured number
Cc1nn(-c2ccccc2)c2nc(Cl)c(C=O)c(-c3ccccc3)c12	COLO 205 colon	%	121

For every record below, what is its growth?
1. O=C(Nc1cccc2c1CCCC2)c1cc2ccccc2cc1O
2. COc1ccc(-c2nn(-c3cccc(Cl)c3)cc2-c2c(C#N)c(=O)n3[nH]c(-c4ccccc4)nc3c2C#N)cc1
3. CNC(=O)c1cn(C2CC2)c2cc(N3CCN(C(=O)c4cc(OC)c(OC)c(OC)c4)CC3)c(F)cc2c1=O
4. CNC(=O)c1c(I)c(NC(C)=O)c(I)c(C(=O)O)c1I
5. Clc1ccc(C2=NN=C3C(Cc4ccccc4)=Nc4ccccc4N3C2)cc1
6. Fc1ccc2[nH]cc(-c3nc(-c4ccsc4)cs3)c2c1

1: 92.3; 2: 123; 3: 105; 4: 118; 5: 105; 6: 101

The measurements presented in this section are drawn from PubChem BioAssay (NCI).
